# system tested: oxytocin receptor (Rattus norvegicus)
# Construct: crude membrane preparation of rat uterus as the source of oxytocin receptors; from tissue; host or cells: rat uterus, crude membrane preparation
# Sequence (P70536 1-388): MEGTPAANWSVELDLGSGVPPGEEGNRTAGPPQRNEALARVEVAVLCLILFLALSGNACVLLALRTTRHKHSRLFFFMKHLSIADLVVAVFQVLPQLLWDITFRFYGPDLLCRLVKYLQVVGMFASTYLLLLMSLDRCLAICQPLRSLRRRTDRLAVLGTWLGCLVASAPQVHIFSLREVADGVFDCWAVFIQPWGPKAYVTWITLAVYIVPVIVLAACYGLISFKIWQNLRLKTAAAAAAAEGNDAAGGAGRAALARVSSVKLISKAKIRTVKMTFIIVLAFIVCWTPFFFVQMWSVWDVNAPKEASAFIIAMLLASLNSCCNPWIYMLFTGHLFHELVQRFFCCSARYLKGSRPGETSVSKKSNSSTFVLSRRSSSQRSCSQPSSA
# protocol details: [^3H]Oxytocin Binding Assay (crude membrane preparation of rat uterus)
Kindly state pIC50 for each of the entries shown.
Answers are plain numbers, as −log10 of the molar value.

Solved entries (count: 4):
1) CN1C(=O)[C@H](NS(=O)(=O)C[C@@]23CC[C@@H](CC2O)C3(C)C)N=C(c2ccccc2)c2ccccc21 (single isomer, unassigned) [Example 16A]; 5.85
2) CN1C(=O)C(NS(=O)(=O)C[C@]23CC[C@H](CC2=O)C3(C)C)N=C(c2ccccc2)c2ccccc21 (some centres unmarked); 5.34
3) CN1C(=O)[C@H](NC(=O)NC23CC4CC(CC(C4)C2)C3)N=C(c2ccccc2)c2ccccc21 (single isomer, unassigned); 5.77
4) CN1C(=O)C(NS(=O)(=O)C[C@@]23CC[C@@H](CC2=O)C3(C)C)N=C(c2ccccc2)c2ccccc21 (some centres unmarked); 5.44

Summary for this molecule, CN1C(=O)C(NC(=O)NCC23CC4CC(CC(C4)C2)C3)N=C(c2ccccc2)c2ccccc21 (racemic) : pIC50 is 5.57

Where do these numbers come from? They come from patent US5175159A.
